Attribution: patent US20220257596A1

test system: SCD1 protein production in SZ95-SCD1-HiBit cells; experiment: Measurement of SCD1 expression in SZ95-SCD1-HiBit cells (HiBiT assay); format: cell-based; conditions: Homo sapiens; SZ95-SCD1-HiBit cells, 48h incubation, top concentration 18 μM
EC50 for assorted molecules

{"moleculeSmiles": "O=S(=O)(c1ccccc1)N(CC(F)(F)F)c1ccc(C(O)(C(F)(F)F)C(F)(F)F)cc1", "resultType": "EC50", "measValue": "47.4 nM"}

Query: Requested read-out: EC50. Entry: CCCc1c(OCCCN(C)c2cnc(CC(=O)O)cn2)ccc2c(C(F)(F)F)noc12
Result: 29.4 nM

Query: Using the record for CC(C)(C)N1C(=O)C(Nc2ccc(N3CCCCC3)cc2)=C(c2ccccc2)S1(=O)=O , report its EC50.
Result: 1.8 nM
